Each item that follows carries a reported Weight change.
Tested on: Mus musculus
Test: Mean of weight gain from day 0 to day 24 at a dose of 6.25 mg/kg/day
Format: functional
Parameters: unit not given here
Keep the answer to the number alone.

Worked examples, 5 compounds total:
smilesRecord | Weight change
CCc1nc(N)nc(N)c1-c1ccc(NCc2ccc(F)cc2)c([N+](=O)[O-])c1 | 2.5
CCc1nc(N)nc(N)c1-c1ccc(NC)c([N+](=O)[O-])c1 | 3.3
CCc1nc(N)nc(N)c1-c1ccc(NCc2ccccc2)c([N+](=O)[O-])c1 | 2.1
CCc1nc(N)nc(N)c1-c1ccc(NCc2ccc(Cl)cc2)c([N+](=O)[O-])c1 | 3.3
CCc1nc(N)nc(N)c1-c1ccc(N(CC)Cc2ccccc2)c([N+](=O)[O-])c1 | 1.6

Query block: Param readout = Weight change; param system = Mus musculus; param query = "CCc1nc(N)nc(N)c1-c1ccc(NCc2ccc(OC)c(OC)c2)c([N+](=O)[O-])c1" ; response: value
Result block: 0.9

Query block: Recall the recorded Weight change for "CCc1nc(N)nc(N)c1-c1ccc(NCc2ccc(C(F)(F)F)cc2)c([N+](=O)[O-])c1" with Mus musculus and state it.
Result block: 2.3

Query block: I'm curious: which Weight change was measured for "CCc1nc(N)nc(N)c1-c1ccc(NCc2ccc(OC)cc2)c([N+](=O)[O-])c1" tested on Mus musculus?
Result block: 3.6

Query block: Query for Mus musculus: what Weight change does the record show for "CCCCNc1ccc(-c2c(N)nc(N)nc2CC)cc1[N+](=O)[O-]" ?
Result block: 5.4

Query block: Query the reported Weight change for Mus musculus; item: "CCc1nc(N)nc(N)c1-c1ccc(NCc2ccc(C)cc2)c([N+](=O)[O-])c1"
Result block: 2.1

Query block: Recall the recorded Weight change for "CCc1nc(N)nc(N)c1-c1ccc(NCc2ccc(Cl)c(Cl)c2)c([N+](=O)[O-])c1" with Mus musculus and state it.
Result block: 3.5

###

Target: Dihydrofolate reductase (Rattus norvegicus)
Sequence (Q920D2 whole entry): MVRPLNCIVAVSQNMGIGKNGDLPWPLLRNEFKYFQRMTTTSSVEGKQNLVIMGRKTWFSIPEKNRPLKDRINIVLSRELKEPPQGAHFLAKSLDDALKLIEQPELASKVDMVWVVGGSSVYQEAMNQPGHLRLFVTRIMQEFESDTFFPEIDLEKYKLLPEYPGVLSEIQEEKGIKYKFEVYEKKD
The compounds listed here are annotated with their pIC50.
Please express pIC50 as -log10 of the molar concentration.

// known answers, use as guide
smilesRecord | pIC50
CCc1nc(N)nc(N)c1-c1ccc(N(CC)Cc2ccccc2)c(N)c1 | 5.40
CCc1nc(N)nc(N)c1-c1ccc(N2CCCC2)c([N+](=O)[O-])c1 | 5.77
CCc1nc(N)nc(N)c1-c1ccc([N+](=O)[O-])c(NCc2ccccc2)c1 | 5.04
CCc1nc(N)nc(N)c1-c1ccc(N2CCN(C)CC2)c([N+](=O)[O-])c1 | 5.41
CCc1nc(N)nc(N)c1-c1ccc([N+](=O)[O-])c(N(C)Cc2ccccc2)c1 | 6.36

Query block: Fill in: pIC50 of "CCc1nc(N)nc(N)c1-c1ccc(Cl)c([N+](=O)[O-])c1" is ___
Result block: 7.10

Query block: Consider the compound "CCc1nc(N)nc(N)c1-c1ccc(N(C)C)c(N)c1" and give its measured pIC50.
Result block: 4.17
